Molecular target: DNA dC->dU-editing enzyme APOBEC-3G (Homo sapiens)
Assay: qHTS for inhibitors of Vif-A3G interactions: Cherry picks counterscreen;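 also: hits raise yellow fluorescence by blocking Vif-driven A3G-eYFP degradation; nearly all actives have a fitted effect of over 70% in size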; also: potency is read from the fitted curve at half-maximal effect
Conditions: HeLa A3G-eYFP + Vif, eYFP fluorescence, 24 h
Screen size: about 2,100 compounds; about 1,100 (52%) were called active. Roughly 27% stayed inconclusive and do not appear here. So high a share suggests a set chosen from earlier hits. The list shows a part of the results.
Listing: Potency of selected compounds

Worked cases, Potency given:
INSERT INTO results (smiles_notation, test_value) VALUES
  ('CCOc1cc(/C=C(/C#N)C(=O)Nc2ccc(O)cc2)cc(Br)c1O', '17.7 µM (active)'),
  ('CCN(CC)c1ccc(/C=C/c2ccnc3ccccc23)cc1', '14.6 µM (active)');

### Prompt Please report the recorded Potency for Cc1cc(C)c2nc(SCC(=O)N3CC(=O)Nc4ccccc43)c(C#N)cc2c1 .
### Response 1.4 µM (active)

### Prompt Consider the compound CCn1nc(-c2ccccc2)c2nc3ccccc3nc21 and give its measured Potency.
### Response 23.1 µM (active)

---

Biological target: DNA dC->dU-editing enzyme APOBEC-3G (Homo sapiens)
Assay: qHTS for inhibitors of Vif-A3G interactions: Cherry picks counterscreen;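 also: hits raise yellow fluorescence by blocking Vif-driven A3G-eYFP degradation; nearly all actives have a fitted effect of over 70% in size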;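 as to max response: max response given as percent of control signal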
Conditions: HeLa A3G-eYFP + Vif, eYFP fluorescence, 24 h
Among all 2,100 compounds or so, about 1,100 (52%) were called active. Inconclusive results (about 27%) are left out. The set was probably picked from earlier hits. The list shows a part of the results.
PROPERTY: max response (%)
Quick reminder: number only, in %, skip the unit.

Sample records with max response:
INSERT INTO measurements (smiles_notation, test_value) VALUES
  ('CCOC(=O)c1cc2n(c1N)-c1ccccc1C2=O', -28.5),
  ('COc1ccc(-c2nc3c4ccccc4ccn3c2Cc2ccsc2)cc1OC', -1.53),
  ('CC(C)OC(=O)c1ccc(NCc2cc(O)ccc2O)cc1Cl', -19.4),
  ('N#Cc1c(Nc2ccccc2)[n+]([O-])c2ccc(Cl)cc2[n+]1[O-]', 26.1),
  ('CN(C)C(=O)c1cccc(-c2cnc3c(NC=O)cc(-c4ccccc4F)cn23)c1', -0.0482);

# ---- query compound ----
### Prompt # query: max response of entry Cc1cc(C)nc(NC(=S)Nc2cccc(Cl)c2Cl)c1
### Response 1.24

---

Target: DNA dC->dU-editing enzyme APOBEC-3G (Homo sapiens) (UniProt Q9HC16)
Sequence (Q9HC16 whole entry, looked up): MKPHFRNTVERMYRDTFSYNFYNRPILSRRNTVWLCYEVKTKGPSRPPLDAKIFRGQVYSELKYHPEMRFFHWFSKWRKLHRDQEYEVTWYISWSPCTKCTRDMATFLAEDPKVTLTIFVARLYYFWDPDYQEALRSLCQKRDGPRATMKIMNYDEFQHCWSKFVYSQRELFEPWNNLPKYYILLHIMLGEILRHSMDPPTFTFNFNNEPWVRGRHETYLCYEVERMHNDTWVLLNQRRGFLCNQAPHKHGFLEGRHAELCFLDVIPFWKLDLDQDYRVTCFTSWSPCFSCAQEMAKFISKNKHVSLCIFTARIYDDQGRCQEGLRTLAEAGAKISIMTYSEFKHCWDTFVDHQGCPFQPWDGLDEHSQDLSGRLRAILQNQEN
Assay: qHTS for inhibitors of Vif-A3G interactions: Cherry picks counterscreen;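 also: hits raise yellow fluorescence by blocking Vif-driven A3G-eYFP degradation; nearly all actives have a fitted effect of over 70% in size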; also: potency is read from the fitted curve at half-maximal effect
Conditions: HeLa A3G-eYFP + Vif (tagged APOBEC3G with the HIV-1 protein that degrades it), eYFP fluorescence, 24 h
About 1,100 (52%) of roughly 2,100 compounds were called active. Inconclusive results (about 27%) are left out. So high a share suggests a set chosen from earlier hits. This is one part of the list.
PROPERTY: Potency

### Prompt Tell me reported Potency for CCCn1nc(C(=O)N2CC(=O)Nc3ccccc32)c2ccccc2c1=O , tested with DNA dC->dU-editing enzyme APOBEC-3G (Homo sapiens) (UniProt Q9HC16).
### Response 7.04 µM (active)

### Prompt Value wanted: Potency (DNA dC->dU-editing enzyme APOBEC-3G (Homo sapiens) (UniProt Q9HC16)) of entry CC(=O)c1sc2nc(-c3cccs3)cc(C(F)(F)F)c2c1N
### Response 13 µM (active)

### Prompt Recall the recorded Potency for COc1ccc(-n2c(O)c(/C=N/NS(=O)(=O)c3ccc(C)c([N+](=O)[O-])c3)c3ccccc3c2=O)cc1OC with DNA dC->dU-editing enzyme APOBEC-3G (Homo sapiens) (UniProt Q9HC16) and state it.
### Response 4.61 µM (active)

### Prompt Which Potency is reported with DNA dC->dU-editing enzyme APOBEC-3G (Homo sapiens) (UniProt Q9HC16) for this entry: CN[C@H]1CCc2cc(OC)c(OC)c(OC)c2-c2ccc(N(C)CC(OC)OC)c(=O)cc21 ?
### Response 6.27 µM (active)

### Prompt Report Potency for Cc1ccc(C)c(NC(=O)Cn2cc(S(=O)(=O)Cc3cccc(Cl)c3)c3ccccc32)c1 tested on DNA dC->dU-editing enzyme APOBEC-3G (Homo sapiens) (UniProt Q9HC16).
### Response 18.4 µM (active)

### Prompt Tell me reported Potency for COc1ccc(C2C(C#N)=C(N)Oc3cc(N)ccc32)cc1OC (configuration not stated) , tested with DNA dC->dU-editing enzyme APOBEC-3G (Homo sapiens) (UniProt Q9HC16).
### Response 9.94 µM (active)

### Prompt API: value(readout= Potency, system= DNA dC->dU-editing enzyme APOBEC-3G (Homo sapiens) (UniProt Q9HC16), query= CCOC(=O)Cn1c(=O)c(-c2cc(Br)ccc2N)nc2ccccc21 )
### Response 8.2 µM (active)
